Consider the following binders; for each one, report its pKd.
- Measured on: T1, huIL1RAP ECD recombinant protein (human, UniProt Q9NPH3 21-367)
- T1 construct: also called recombinant human IL1RAP-ECD; recombinant human IL1RAP; not shown: C-terminal histidine tag for purification
- Protocol summary: Octet BLI, antibody on Protein A biosensor, recombinant huIL1RAP ECD
One number for each entry, as −log10 of the molar value.

Binder: 37E10_15B5 (antibody, V domains shown, also called BFB759) VH: QVQLVESGGGVVQPGRSLRLSCAASGFTFRSHGMHWVRQAPGKGLEWVAVIWYDGSSEYYADSVKGRFTISRDNSKNTLYLQMNSLRAEDTAVYYCARENVYGSGWFFDYWGQGTLVTVSS VL: EIVMTQSPATLSVSPGERASLSCRASQSVGSNLAWYQQRPGQAPRLLIFGASTRATGIPARFSGSRSGTEFTLTISSLQSEDFALYYCQQYNNWPPWTFGQGTKLEIK
pKd: 9.52

The binder identified as 33H2_21B1 (antibody, V domains shown, Recombinant human antibody) VH: EVQVVESGGGLVQPGGSLRLSCATSGFTFRSYWMTWVRQAPGKGLEWVANIKQDGSERHYVDSVKGRFTISRDNAKTSLYLQMSSLRAEDTAMYYCAREGYYGSGYFDYWGQGTLVTVSS VL: DIQMTQSPSTLSASVGDRVIITCRASQSISRGLAWYQQKPGKAPKLLIYKASNLESGVPSRFSGSGSGTEFTLTISSLQPDDFAAYYCQQYSYYSHTFGQGTKVEIK registered its pKd at 8.15
